Each record here notes measured viability, T/C.
System: 186277-243-T-J2-PDC complex spheroid growth, % test/control
METHOD: Anticancer human tumor 186277-243-T-J2-PDC patient-derived colon adenocarcinoma cell line growth inhibition [Asc]
PROTOCOL_CONDITIONS: second compound 0.01 µM; first compound 0.0316 µM; stronger effect = lower value
Just the number please, in %, no unit attached.

See these solved cases before continuing.
MOLECULE | MEASURED_VALUE
C#Cc1c(F)ccc2cc(O)cc(-c3ncc4c(N5CC6CCC(C5)N6)nc(OCC56CCCN5CC(F)C6)nc4c3F)c12 (stereo not given) + CNC(C)C(=O)NC1CN(S(=O)(=O)c2cccc(S(=O)(=O)N3CCC4CCC(C(=O)NC(c5ccccc5)c5ccccc5)N4C(=O)C(NC(=O)C(C)NC)C3)c2)CCC2CCC(C(=O)NC(c3ccccc3)c3ccccc3)N2C1=O | 110
C=C(F)C(=O)N1CCN(c2nc(OCC3CCCN3C)nc3c2CCN(c2cccc4cccc(Cl)c24)C3)CC1CC#N (stereo not given) + CNC(C)C(=O)NC1CN(S(=O)(=O)c2cccc(S(=O)(=O)N3CCC4CCC(C(=O)NC(c5ccccc5)c5ccccc5)N4C(=O)C(NC(=O)C(C)NC)C3)c2)CCC2CCC(C(=O)NC(c3ccccc3)c3ccccc3)N2C1=O | 133
NC1CCC(NC2CC2c2ccccc2)CC1 (stereo not given) + CNC(C)C(=O)NC1CN(S(=O)(=O)c2cccc(S(=O)(=O)N3CCC4CCC(C(=O)NC(c5ccccc5)c5ccccc5)N4C(=O)C(NC(=O)C(C)NC)C3)c2)CCC2CCC(C(=O)NC(c3ccccc3)c3ccccc3)N2C1=O | 109

Prompt line: API: value(readout=viability, T/C, system=186277-243-T-J2-PDC complex spheroid growth, % test/control) for record CCN1CCN(Cc2ccc(Nc3ncc(F)c(-c4cc(F)c5nc(C)n(C(C)C)c5c4)n3)nc2)CC1 + CNC(C)C(=O)NC1CN(S(=O)(=O)c2cccc(S(=O)(=O)N3CCC4CCC(C(=O)NC(c5ccccc5)c5ccccc5)N4C(=O)C(NC(=O)C(C)NC)C3)c2)CCC2CCC(C(=O)NC(c3ccccc3)c3ccccc3)N2C1=O
Response line: 109

Prompt line: API: value(readout=viability, T/C, system=186277-243-T-J2-PDC complex spheroid growth, % test/control) for record Cn1ncnc1[C@H]1c2n[nH]c(=O)c3cc(F)cc(c23)N[C@@H]1c1ccc(F)cc1 + CNC(C)C(=O)NC1CN(S(=O)(=O)c2cccc(S(=O)(=O)N3CCC4CCC(C(=O)NC(c5ccccc5)c5ccccc5)N4C(=O)C(NC(=O)C(C)NC)C3)c2)CCC2CCC(C(=O)NC(c3ccccc3)c3ccccc3)N2C1=O
Response line: 144

* * *

System: 186277-243-T-J2-PDC complex spheroid growth, % test/control
METHOD: Anticancer human tumor 186277-243-T-J2-PDC cell line growth inhibition [Asc];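 also: spheroids exposed to agents for 7 days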;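 as to viability, T/C: 100% = DMSO vehicle control wells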
PROTOCOL_CONDITIONS: second compound 0.316 µM; first compound 1 µM; stronger effect = lower value
OUTCOME_MEASURE: viability, T/C

See these solved cases before continuing.
MOLECULE | OUTCOME_MEASURE | MEASURED_VALUE
C=CC(=O)N1CCN(c2nc(=O)n(-c3c(C)ccnc3C(C)C)c3nc(-c4c(O)cccc4F)c(F)cc23)C(C)C1 (stereo not drawn) + Cc1c(S(C)(=O)=O)c(-c2cc(F)cc(N3CCN(c4ccc(NS(=O)(=O)c5ccc(NC(CCN6CCC(C(=O)OCCCP(=O)(O)O)CC6)CSc6ccccc6)c(S(=O)(=O)C(F)(F)F)c5)cc4)CC3)c2)c(-c2ccc(Cl)cc2)n1C(C)C | viability, T/C | 104%
O=C(c1ccc(F)c(F)c1Nc1ccc(I)cc1F)N1CC(O)([C@@H]2CCCCN2)C1 + Cc1c(S(C)(=O)=O)c(-c2cc(F)cc(N3CCN(c4ccc(NS(=O)(=O)c5ccc(NC(CCN6CCC(C(=O)OCCCP(=O)(O)O)CC6)CSc6ccccc6)c(S(=O)(=O)C(F)(F)F)c5)cc4)CC3)c2)c(-c2ccc(Cl)cc2)n1C(C)C | viability, T/C | 2.79%

Now look at this entry.
Prompt line: Entry CCN1CCN(Cc2ccc(Nc3ncc(F)c(-c4cc(F)c5nc(C)n(C(C)C)c5c4)n3)nc2)CC1 + CNC(C)C(=O)NC1CN(S(=O)(=O)c2cccc(S(=O)(=O)N3CCC4CCC(C(=O)NC(c5ccccc5)c5ccccc5)N4C(=O)C(NC(=O)C(C)NC)C3)c2)CCC2CCC(C(=O)NC(c3ccccc3)c3ccccc3)N2C1=O : reported viability, T/C = ?
Response line: 110%

* * *

Tested on: 186277-243-T-J2-PDC complex spheroid growth, % test/control
METHOD: Anticancer human tumor 186277-243-T-J2-PDC cell line growth inhibition [Asc];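 also: spheroids exposed to agents for 7 days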
PROTOCOL_CONDITIONS: curve of first compound; second compound 1 µM
OUTCOME_MEASURE: IC50

See these solved cases before continuing.
MOLECULE | IC50
NC1CCC(NC2CC2c2ccccc2)CC1 (stereo not drawn) + Cc1c(S(C)(=O)=O)c(-c2cc(F)cc(N3CCN(c4ccc(NS(=O)(=O)c5ccc(NC(CCN6CCC(C(=O)OCCCP(=O)(O)O)CC6)CSc6ccccc6)c(S(=O)(=O)C(F)(F)F)c5)cc4)CC3)c2)c(-c2ccc(Cl)cc2)n1C(C)C | > 0.1 µM
CCN1CCN(Cc2ccc(Nc3ncc(F)c(-c4cc(F)c5nc(C)n(C(C)C)c5c4)n3)nc2)CC1 + CNC(C)C(=O)NC1CN(S(=O)(=O)c2cccc(S(=O)(=O)N3CCC4CCC(C(=O)NC(c5ccccc5)c5ccccc5)N4C(=O)C(NC(=O)C(C)NC)C3)c2)CCC2CCC(C(=O)NC(c3ccccc3)c3ccccc3)N2C1=O | > 1 µM
O=C(c1ccc(F)c(F)c1Nc1ccc(I)cc1F)N1CC(O)([C@@H]2CCCCN2)C1 + Cc1c(S(C)(=O)=O)c(-c2cc(F)cc(N3CCN(c4ccc(NS(=O)(=O)c5ccc(NC(CCN6CCC(C(=O)OCCCP(=O)(O)O)CC6)CSc6ccccc6)c(S(=O)(=O)C(F)(F)F)c5)cc4)CC3)c2)c(-c2ccc(Cl)cc2)n1C(C)C | 0.0659 µM
COc1c(OCCCN2CCOCC2)ccc2c3n(c(=NC(=O)c4cnc(N)nc4)nc12)CCN3 + CNC(C)C(=O)NC1CN(S(=O)(=O)c2cccc(S(=O)(=O)N3CCC4CCC(C(=O)NC(c5ccccc5)c5ccccc5)N4C(=O)C(NC(=O)C(C)NC)C3)c2)CCC2CCC(C(=O)NC(c3ccccc3)c3ccccc3)N2C1=O | 0.0848 µM
C=CC(=O)N1CCN(c2nc(=O)n(-c3c(C)ccnc3C(C)C)c3nc(-c4c(O)cccc4F)c(F)cc23)C(C)C1 (stereo not drawn) + Cc1c(S(C)(=O)=O)c(-c2cc(F)cc(N3CCN(c4ccc(NS(=O)(=O)c5ccc(NC(CCN6CCC(C(=O)OCCCP(=O)(O)O)CC6)CSc6ccccc6)c(S(=O)(=O)C(F)(F)F)c5)cc4)CC3)c2)c(-c2ccc(Cl)cc2)n1C(C)C | > 10 µM

Now look at this entry.
Prompt line: Entry CCN1C(C(=O)NC23CCC(C(=O)O)(CC2)CC3)C(c2cccc(Cl)c2F)C2(C(=O)Nc3cc(Cl)ccc32)C12CCCCC2 (stereo not drawn) + Cc1c(S(C)(=O)=O)c(-c2cc(F)cc(N3CCN(c4ccc(NS(=O)(=O)c5ccc(NC(CCN6CCC(C(=O)OCCCP(=O)(O)O)CC6)CSc6ccccc6)c(S(=O)(=O)C(F)(F)F)c5)cc4)CC3)c2)c(-c2ccc(Cl)cc2)n1C(C)C : reported IC50 = ?
Response line: 0.202 µM

* * *

Test system: 186277-243-T-J2-PDC complex spheroid growth, % test/control
METHOD: Anticancer human tumor 186277-243-T-J2-PDC cell line growth inhibition [Asc];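 also: spheroids exposed to agents for 7 days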
PROTOCOL_CONDITIONS: curve of first compound; second compound 0.1 µM
Excerpt: Multicellular complex tumor spheroid response to apoptosis pathway targeting inhibitors Alrizomadlin, Pelcitoclax, and Dasminapant in combination with a variety of drugs and investigational agents in selected tumor cell lines […] Compounds. […] If the clinical Cmax for an agent had not been determined, the highest concentration tested was 10 microM. […]
OUTCOME_MEASURE: pIC50
Scale note: pIC50 = -log10(concentration in M).

MOLECULE | OUTCOME_MEASURE | MEASURED_VALUE
O=C(c1ccc(F)c(F)c1Nc1ccc(I)cc1F)N1CC(O)([C@@H]2CCCCN2)C1 + Cc1c(S(C)(=O)=O)c(-c2cc(F)cc(N3CCN(c4ccc(NS(=O)(=O)c5ccc(NC(CCN6CCC(C(=O)OCCCP(=O)(O)O)CC6)CSc6ccccc6)c(S(=O)(=O)C(F)(F)F)c5)cc4)CC3)c2)c(-c2ccc(Cl)cc2)n1C(C)C | pIC50 | 7.03

Now look at this entry.
Prompt line: Entry COc1c(OCCCN2CCOCC2)ccc2c3n(c(=NC(=O)c4cnc(N)nc4)nc12)CCN3 + CNC(C)C(=O)NC1CN(S(=O)(=O)c2cccc(S(=O)(=O)N3CCC4CCC(C(=O)NC(c5ccccc5)c5ccccc5)N4C(=O)C(NC(=O)C(C)NC)C3)c2)CCC2CCC(C(=O)NC(c3ccccc3)c3ccccc3)N2C1=O : reported pIC50 = ?
Response line: 7.09

Values were extracted from PubChem BioAssay AID1963426.
